Every entry's value here was drawn from ChEMBL document CHEMBL3351917.

# ASSAY EXPLANATION: Retention time of the compound in 0 to 100% ACN/Water/0.1%TFA by RP-HPLC analysis
# Format: physicochemical
# RUN PARAMETERS: buffer
QUANTITY: Retention_time (min)

INSERT INTO measurements (compound_string, quantity, measured_result) VALUES
  ('O=C(O)/C(Cc1ccccc1[N+](=O)[O-])=N/Nc1nc(-c2ccccc2)cs1', 'Retention_time', 15.8),
  ('O=C(O)/C(Cc1ccccc1[N+](=O)[O-])=N\Nc1nc(-c2ccccc2)cs1', 'Retention_time', 16.98),
  ('O=C(O)/C(Cc1ccc(O)cc1)=N/Nc1nc(-c2ccc(Cl)c(Cl)c2)cs1', 'Retention_time', 16.63),
  ('O=C(O)/C(Cc1ccc(O)cc1)=N\Nc1nc(-c2ccc(Cl)c(Cl)c2)cs1', 'Retention_time', 18.74);
